# system-tested: Cloned human M1 receptor (CHRM1) stably expressed in HEK293 cells (Homo sapiens)
# Sequence (P11229 1-460): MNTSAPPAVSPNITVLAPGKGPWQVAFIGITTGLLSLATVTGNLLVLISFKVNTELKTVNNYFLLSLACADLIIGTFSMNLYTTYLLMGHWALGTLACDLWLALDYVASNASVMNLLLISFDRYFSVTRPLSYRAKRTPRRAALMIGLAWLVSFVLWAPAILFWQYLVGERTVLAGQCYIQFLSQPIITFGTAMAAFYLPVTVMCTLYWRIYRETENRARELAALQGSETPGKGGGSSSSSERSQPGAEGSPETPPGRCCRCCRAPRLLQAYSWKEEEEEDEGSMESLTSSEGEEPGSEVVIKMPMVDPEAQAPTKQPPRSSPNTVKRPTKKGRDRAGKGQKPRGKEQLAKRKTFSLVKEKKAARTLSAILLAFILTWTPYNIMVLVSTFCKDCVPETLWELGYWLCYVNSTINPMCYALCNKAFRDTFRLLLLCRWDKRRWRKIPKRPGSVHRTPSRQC
# test-name: CHRM1 Ca++ Flux Assay (agonist mode, FDSS 7000EX)
# protocol-conditions: geometric mean if tested more than once
recorded-metric: pEC50
Remember, pEC50 is on a log scale: it is -log10 of the molar concentration.

compound: Fc1ccc(OC2CCOCC2)c(C2CCN([C@@H]3CCC4(C3)CN(c3cncnc3)C4)CC2)c1 (single isomer, unassigned) [Example 10H]
pEC50: 5.86

compound: c1ccc(C2CCN([C@@H]3CCC4(C3)CN(c3nnco3)C4)CC2)c(CC2CCOCC2)c1
pEC50: 6.27

compound: c1ccc(C2CCN([C@@H]3CCC4(C3)CN(c3cncnc3)C4)CC2)c(O[C@@H]2CCOC2)c1
pEC50: 7.01

compound: O=C(C1COC1)N1CC2(CC[C@@H](N3CCC(c4ccccc4OCC4(C(F)(F)F)CC4)CC3)C2)C1
pEC50: 6.99

compound: COc1ccccc1C1CCN([C@@H]2CCC3(C2)CN(c2cc(Cl)nnc2Cl)C3)CC1
pEC50: 5.69

compound: O=C(C1COC1)N1CC2(CC[C@@H](N3CCC(c4ccccc4OC(F)(F)F)CC3)C2)C1 [Example 12A]
pEC50: 8.10

compound: O=C1CCCN1CCOc1ccccc1C1CCN([C@@H]2CCC3(C2)CN(C(=O)C2(F)CC2)C3)CC1.O=CO (single isomer, unassigned) [Example 7P, formate salt]
pEC50: 7.54

compound: c1ccc(C2CCN([C@@H]3CCC4(C3)CN(c3nnco3)C4)CC2)c(OC2CC3(COC3)C2)c1
pEC50: 6.63

Value of pEC50 reported for the compound `c1ccc(C2CCN([C@@H]3CCC4(C3)CN(c3nnco3)C4)CC2)c(-c2ncco2)c1` is 7.03

// field: pEC50; key: O=C(N1CC2(CC[C@H](N3CCC(c4ccccc4C4CCOCC4)CC3)C2)C1)C1(F)CC1 (single isomer, unassigned) ; value = 5.19

pEC50 reading for `COCCOc1ccccc1C1CCN([C@@H]2CCC3(C2)CN(c2ccnnc2)C3)CC1` : 6.38

O=C(N1CC2(CC[C@@H](N3CCC(c4ccccc4OCC4CC4)CC3)C2)C1)C1(F)CC1 (single isomer, unassigned) [Example 7O] yielded pEC50 of 7.43
